Data origin, for the record: paper PMC6858373

- assay.system: full-length P. pyralis luciferase (Photinus pyralis, UniProt P08659, K549A/L550V/N119G/N50D/S548I)
- Sequence (P08659 whole entry N50D/N119G/S548I/K549A/L550V, looked up): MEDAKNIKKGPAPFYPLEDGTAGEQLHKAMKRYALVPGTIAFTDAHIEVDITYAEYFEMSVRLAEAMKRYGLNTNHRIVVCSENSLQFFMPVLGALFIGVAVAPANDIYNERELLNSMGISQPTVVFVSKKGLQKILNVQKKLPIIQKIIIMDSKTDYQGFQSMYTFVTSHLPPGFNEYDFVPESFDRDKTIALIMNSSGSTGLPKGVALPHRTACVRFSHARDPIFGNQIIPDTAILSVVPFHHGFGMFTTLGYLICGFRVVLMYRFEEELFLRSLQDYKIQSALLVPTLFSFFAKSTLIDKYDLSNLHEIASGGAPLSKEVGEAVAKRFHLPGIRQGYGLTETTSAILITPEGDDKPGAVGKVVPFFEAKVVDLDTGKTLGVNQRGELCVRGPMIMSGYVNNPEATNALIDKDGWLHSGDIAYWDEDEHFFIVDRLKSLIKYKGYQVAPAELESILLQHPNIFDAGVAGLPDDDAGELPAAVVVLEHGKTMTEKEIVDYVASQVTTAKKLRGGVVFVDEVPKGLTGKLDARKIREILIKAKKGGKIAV
- Format: cell-based
- particulars: CC_NCI screening; normalized to on-plate 0.3% DMSO controls
Counter-ions that a name gives are not always drawn.
Luciferase Assay Z-score (full-length luciferase counter-screen) listing for selected compounds.
Response field accepts a number only; no unit should be typed.

Entry "CO[C@H]1C[C@@H]2CC[C@@H](C)[C@@](O)(O2)C(=O)C(=O)N2CCCC[C@H]2C(=O)O[C@H]([C@H](C)C[C@@H]2CC[C@@H](O)[C@H](OC)C2)CC(=O)[C@H](C)/C=C(\C)[C@@H](O)[C@@H](OC)C(=O)[C@H](C)C[C@H](C)/C=C/C=C/C=C/1C" has what Luciferase Assay Z-score (full-length luciferase counter-screen)?
-2.49

New cases:
Entry O=P1(NCCCl)OCCCN1CCCl (stereo not shown) [Ifosfamide] has what Luciferase Assay Z-score (full-length luciferase counter-screen)?
-0.44

Item: "NC(=O)Nc1cc(-c2cccc(F)c2)sc1C(=O)N[C@H]1CCCNC1"
-0.93

Item: "S=P(N1CC1)(N1CC1)N1CC1"
-0.54

Item: "COc1ccc2c(c1OC)N=C(NC(=O)c1cccnc1)N1CCN=C21"
0.34

Item: NC(=O)NO [Hydroxyurea]
0.33

Item: Cc1cc(C(C)Nc2ccccc2)c2nc(N3CCOCC3)cc(=O)n2c1 (stereo not shown)
0.24

Item: NCC(=O)CCC(=O)O [Aminolevulinic acid hydrochloride]
0.00

Item: "CC(C)[C@H](NS(=O)(=O)c1ccc(-c2ccc(Br)cc2)cc1)C(=O)O"
0.00

Item: "COc1cc(F)c(F)c(Nc2ccc(I)cc2F)c1NS(=O)(=O)C1(C[C@H](O)CO)CC1"
-4.25

Item: "COc1cc(O)c2c(c1)[C@H]1O[C@@H]1C[C@H](O)[C@H](O)C(=O)/C=C\C[C@H](C)OC2=O"
-3.54
